Test system: HCC-2998 colon
EXPERIMENT SUMMARY: NCI-60 one-dose screen, 48 h
ASSAY SETUP: 10 µM unless noted
This is part of a sample that, as a whole, favours compounds with a hit. Of some 83,000 tested, about 20% had one in any assay. Calls of active or inactive are those of the source. Rule for the calls: active = growth percent below 10; inactive = the rest.
Reply using exactly one outcome from 1 (active), -1 (inactive)

>  <COMPOUND>
COc1cccc(-c2nn(-c3ccccc3)cc2-c2ccnc(N3CCN(C(=O)c4ccccc4)CC3)c2)c1

>  <CLASS NAME>
-1

$$$$
>  <COMPOUND>
CN(C)CCCOc1c2ccc(Cl)cc2nc2c1oc1ccccc12

>  <CLASS NAME>
1

$$$$
>  <COMPOUND>
CC(C)(C)Nc1nc2c(OCCc3ccccc3)cccn2c1-c1ccc(Cl)cc1

>  <CLASS NAME>
-1

$$$$
>  <COMPOUND>
COC(=O)C(Cc1ccccc1)NS(=O)(=O)/N=C1\NC(=O)NC1=C(Cl)Cl (centres undefined)

>  <CLASS NAME>
-1

$$$$
>  <COMPOUND>
COc1ccc(-c2csc(N/N=C/c3c(-c4ccc(S(C)(=O)=O)cc4)nc4ccccn34)n2)cc1

>  <CLASS NAME>
-1

$$$$
>  <COMPOUND>
N[C@@H](Cc1cn(-c2c3ccccc3nc3ccccc23)nn1)C(=O)O

>  <CLASS NAME>
-1

$$$$
>  <COMPOUND>
NS(=O)(=O)c1cccc(Nc2nc(SCC(=O)c3ccc(Br)cc3)nc3ccccc23)c1

>  <CLASS NAME>
-1

$$$$
>  <COMPOUND>
CN(C)c1ccc(-c2c(NC(C)(C)C)nc3c(OCCc4ccccc4)cccn23)cc1

>  <CLASS NAME>
-1

$$$$

Query block: Dear all, I need the recorded test outcome for COc1cccc(OC)c1-c1nnn(C)c1C(=S)N1CCN(c2ccc([N+](=O)[O-])cc2Cl)CC1 , thank you.
Result block: -1

Query block: Ok, now COc1cc(/C=C/C(=O)c2cc(OC)c(OC)c(OC)c2)ccc1Oc1nc(NCCO)nc(N2CCOCC2)n1
Result block: 1

Query block: Ok, now CCN1C(=S)N(CC)C2C1NN=C1SC(c3ccccc3)=CC(=O)N12 (centres undefined)
Result block: -1

Query block: Ok, now CCN1C(=S)N(c2ccccc2)C2NC(=O)N(/N=C/C=C/c3ccccc3OC)C21 (centres undefined)
Result block: -1

Query block: Ok, now Cc1[nH]nc2ncc(C#Cc3cncc(C(=O)Nc4ccc(CN5CCN(C)CC5)c(C(F)(F)F)c4)c3)cc12
Result block: -1

Query block: Ok, now O=C(CSc1nc2sc3c(c2c(=O)n1-c1ccc(Cl)cc1)CCCC3)NNC(=O)Nc1ccc(Cl)c(C(F)(F)F)c1
Result block: -1

Query block: Ok, now c1ccc2c(NCCCN3CCOCC3)c3oc4ccccc4c3nc2c1
Result block: 1

Query block: Ok, now Fc1ccc(-c2nc(C(Cl)Cl)nc3cc(-c4ccccc4)nn23)cc1
Result block: 1

Query block: Ok, now CS(=O)(=O)c1ccc(-c2nc3ccccn3c2/C=N/Nc2nc(-c3ccc(Cl)cc3)cs2)cc1
Result block: -1

Query block: Ok, now Cc1cc2nc3c4cc(Cl)ccc4n(CC(=O)NCCN(C)C)c3nc2cc1C
Result block: -1

Query block: Ok, now CC(=O)Oc1ccccc1C(=O)Nc1ccc(C(=O)/C=C/c2ccncc2)cc1
Result block: -1

----------
System: UO-31 renal
EXPERIMENT SUMMARY: NCI-60 one-dose screen, 48 h (100 = growth as untreated, 0 = no growth, -100 = all killed)
ASSAY SETUP: 10 µM unless noted
The panel holds about 83,000 compounds, 20% with a hit somewhere; the sample as a whole holds those more often.
Respond with 1 (yes) for growth values of 50% and above, 0 (no) for values below.

Example cases with answers are listed next.
>  <MOLECULE>
CCCCN1C(=O)/C(=c2\sc3n(c2=O)C2C(NN=3)N(CC)C(=O)N2CC)c2cc(Cl)ccc21 (centres undefined)

>  <CLASS NAME>
1 (yes)

$$$$
>  <MOLECULE>
CCCC(=O)NC(c1ccc(N(CC)CC)cc1)c1cc(C)c2cccnc2c1O (centres undefined)

>  <CLASS NAME>
0 (no)

$$$$
>  <MOLECULE>
COc1ccc(/C=N/NC(=O)c2[nH]c3ccc(Br)cc3c2-c2ccccc2)o1

>  <CLASS NAME>
0 (no)

$$$$
>  <MOLECULE>
O=C(CCN1C(=O)/C(=C/c2ccccc2F)SC1=S)N1CCOCC1

>  <CLASS NAME>
1 (yes)

$$$$
>  <MOLECULE>
CCOC(=O)c1csc(NC(=O)CSc2nc3sc4c(c3c(=O)n2-c2ccc(Cl)cc2)CCCC4)n1

>  <CLASS NAME>
1 (yes)

$$$$
>  <MOLECULE>
COc1ccc(Cc2nn(CC(=O)N/N=C/c3ccc(Cl)cc3)c(=O)c3c(C)noc23)cc1

>  <CLASS NAME>
1 (yes)

$$$$

Query block: Test whether the molecule CN1C(=S)N(C)C2C1NN=C1SC(c3ccccc3)=CC(=O)N12 (centres undefined) records growth of 50% or higher.
Result block: 1 (yes)

Query block: Ok, now Cn1ccnc1C(=O)/C=C/c1ccc(NC(=O)Nc2ccccc2)cc1
Result block: 0 (no)

Query block: Ok, now CN1CCN(Cc2ccc(NC(=O)c3cncc(C#Cc4cnc5[nH]ncc5c4)c3)cc2C(F)(F)F)CC1
Result block: 0 (no)

----------
System: SR leukemia
EXPERIMENT SUMMARY: NCI-60 one-dose screen, 48 h (100 = growth as untreated, 0 = no growth, -100 = all killed)
ASSAY SETUP: 10 µM unless noted
This is part of a sample that, as a whole, favours compounds with a hit. Of some 83,000 tested, about 20% had one in any assay.
Respond with 1 for growth values of 60% and above, 0 for values below.

Example cases with answers are listed next.
>  <COMPOUND>
Cc1ccc(/C=C/c2nn3c(-c4ccco4)nnc3s2)cc1C

>  <CLASS NAME>
1

$$$$
>  <COMPOUND>
O=C(CCN1C(=O)/C(=C/c2ccccc2)SC1=S)N1CCOCC1

>  <CLASS NAME>
1

$$$$
>  <COMPOUND>
C#Cc1nc(C2=C(C)C(O)CC2)cs1 (stereo not given)

>  <CLASS NAME>
1

$$$$
>  <COMPOUND>
COc1ccc(-c2nc3ccc(-c4nnc(SCC(=O)Nc5ccc(C(=O)/C=C/c6ccc(Cl)cc6)cc5)o4)cc3[nH]2)cc1OC

>  <CLASS NAME>
1

$$$$
>  <COMPOUND>
CCCC(=O)NC(c1cccnc1)c1cc(C)c2cccnc2c1O (stereo not given)

>  <CLASS NAME>
0

$$$$

Could you now consider this next compound?
Query block: Test whether the compound NS(=O)(=O)c1ccc(Nc2nc(SCC(=O)c3ccc(Cl)cc3)nc3ccccc23)cc1 records growth of 60% or higher.
Result block: 1

----------
Tested on: A498 renal
EXPERIMENT SUMMARY: NCI-60 one-dose screen, 48 h (100 = growth as untreated, 0 = no growth, -100 = all killed)
ASSAY SETUP: 10 µM unless noted
Compounds without any hit were thinned out: in the full panel of roughly 83,000, 20% have a hit. The source made the active and inactive calls. How the source made its calls: active means growth percent below 10; inactive means the rest.
EXPERIMENTAL READOUT: growth

Below are worked cases with known answers.
>  <CHEMICAL STRING>
CS(=O)(=O)c1ccc(-c2nc3ccccn3c2-c2nc3ccc([N+](=O)[O-])cc3[nH]2)cc1

>  <growth>
87.5% (inactive)

$$$$
>  <CHEMICAL STRING>
COc1ccc(NC2=C(Cl)C(=O)C(C)=C(C)C2=O)cc1OC

>  <growth>
93.2% (inactive)

$$$$
>  <CHEMICAL STRING>
COc1cccc(NC2=CC(=O)C(C)=C(C)C2=O)c1

>  <growth>
67.2% (inactive)

$$$$

Query block: Which growth value belongs to Cc1sc2nc(NCc3ccccc3Cl)[nH]c(=O)c2c1C ?
Result block: 81.3% (inactive)

Query block: Ok, now CCCSc1nc(Nc2ccc(/C(C)=N\NC(N)=S)cc2)c(C#N)c(-c2ccc(OC)cc2)n1
Result block: 101% (inactive)

----------
Tested on: HT29 colon
EXPERIMENT SUMMARY: NCI-60 one-dose screen, 48 h (100 = growth as untreated, 0 = no growth, -100 = all killed)
ASSAY SETUP: 10 µM unless noted
This is part of a sample that, as a whole, favours compounds with a hit. Of some 83,000 tested, about 20% had one in any assay.
Overview of reported growth across a group of molecules:
Report only the number, with the unit % understood.

Below are worked cases with known answers.
>  <MOLECULE>
N#Cc1nc(-c2ccccc2)oc1S(=O)(=O)N1CCCCC1

>  <READOUT NUMBER>
2.86

$$$$
>  <MOLECULE>
CC(=NNc1ncnc2ccccc12)c1ccc(S(C)(=O)=O)cc1

>  <READOUT NUMBER>
112

$$$$
>  <MOLECULE>
N/C(=N\c1nc2c(Br)cccc2s1)C(Br)Br

>  <READOUT NUMBER>
-11.3

$$$$

Read the next record carefully.
Query block: Which growth value belongs to Cc1nc(-c2cc3ccccc3oc2=O)ccc1C(=O)/C=C/c1ccccn1 ?
Result block: 2.1
